Known pIC50 of a selection of compounds
- System: CEM cells HIV-1 protection, formazan growth assay
- test: NCI AIDS Antiviral Assay
- run parameters: measured here: growth of uninfected CEM cells
pIC50: −log10 of the molar value.

Past entries and their recorded results:
{"columns": ["compound", "pIC50"],
 "data": [
  ["C/C(=N/Nc1ccc([N+](=O)[O-])cc1[N+](=O)[O-])c1ccc(Sc2ccc(/C(C)=N/Nc3ccc([N+](=O)[O-])cc3[N+](=O)[O-])cc2)cc1", "< 4.30"],
  ["Cc1c2c(Cl)c3c(c(Cl)c2c(C)c2c(Cl)c4c(c(Cl)c12)C(c1ccccc1)(c1ccccc1)C4(c1ccccc1)c1ccccc1)C(c1ccccc1)(c1ccccc1)C3(c1ccccc1)c1ccccc1", "< 4.00"],
  ["CC(=O)O[C@]12CCCCCC1C1(O)C(O)CCCCC12 (some centres undefined)", "< 3.70"]
]}

Let us examine a further case.
Ask: Report pIC50 for O=C1CCC2(CC1)Cc1ccccc1C2O (centres undefined) please.
Result: < 3.70
